A collection of compounds and their measured Activation (%)
target: MRGPRX4 (Homo sapiens, UniProt Q96LA9); assay: MRGPRX4 activation, Fluo-8 Ca2+ FLIPR assay in HEK293T cells stably expressing MRGPRX4; assay type: cell-based; conditions: second E3-8-1, 123 nM, n = 1
Sequence (Q96LA9 whole entry): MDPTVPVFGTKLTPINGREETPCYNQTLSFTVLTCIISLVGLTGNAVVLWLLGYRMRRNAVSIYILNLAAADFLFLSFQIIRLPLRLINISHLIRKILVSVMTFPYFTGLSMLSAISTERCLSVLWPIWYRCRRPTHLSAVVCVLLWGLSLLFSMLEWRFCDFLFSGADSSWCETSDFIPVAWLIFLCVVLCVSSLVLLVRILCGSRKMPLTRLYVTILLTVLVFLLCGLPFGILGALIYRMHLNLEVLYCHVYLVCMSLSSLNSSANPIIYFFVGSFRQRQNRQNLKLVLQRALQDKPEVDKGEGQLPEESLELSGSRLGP
Numbers only; they are read as %.

CC[C@H]1[C@@H](O)[C@@H]2[C@H](CC[C@]3(C)[C@@H]([C@H](C)COC(=O)NS(=O)(=O)c4ccc5c(c4)CCC(C)(C)O5)CC[C@@H]23)[C@@]2(C)CCCC[C@@H]12 = 3.48

QUERY: # lookup: Activation (%) of CC[C@H]1[C@@H](O)[C@@H]2[C@H](CC[C@]3(C)[C@@H]([C@H](C)CNC(=O)NS(=O)(=O)c4ccc(N5CCCCC5)nc4)CC[C@@H]23)[C@@]2(C)CCCC[C@@H]12
RESULT: 3.17

QUERY: # lookup: Activation (%) of CC[C@H]1[C@@H](O)[C@@H]2[C@H](CC[C@]3(C)[C@@H]([C@H](C)COC(=O)NS(=O)(=O)c4ccc(C(C)(C)CF)cc4)CC[C@@H]23)[C@@]2(C)CCCC[C@@H]12
RESULT: 2.55

QUERY: # lookup: Activation (%) of CC[C@H]1[C@@H](O)[C@@H]2[C@H](CC[C@]3(C)[C@@H]([C@H](C)COC(=O)NS(=O)(=O)c4ccc(N5CCCCC5)nc4)CC[C@@H]23)[C@@]2(C)CCCC[C@@H]12
RESULT: 2.86
